# Target of assay: CYP19A1 (Homo sapiens (Human), UniProt P11511)
# Sequence (P11511 whole entry): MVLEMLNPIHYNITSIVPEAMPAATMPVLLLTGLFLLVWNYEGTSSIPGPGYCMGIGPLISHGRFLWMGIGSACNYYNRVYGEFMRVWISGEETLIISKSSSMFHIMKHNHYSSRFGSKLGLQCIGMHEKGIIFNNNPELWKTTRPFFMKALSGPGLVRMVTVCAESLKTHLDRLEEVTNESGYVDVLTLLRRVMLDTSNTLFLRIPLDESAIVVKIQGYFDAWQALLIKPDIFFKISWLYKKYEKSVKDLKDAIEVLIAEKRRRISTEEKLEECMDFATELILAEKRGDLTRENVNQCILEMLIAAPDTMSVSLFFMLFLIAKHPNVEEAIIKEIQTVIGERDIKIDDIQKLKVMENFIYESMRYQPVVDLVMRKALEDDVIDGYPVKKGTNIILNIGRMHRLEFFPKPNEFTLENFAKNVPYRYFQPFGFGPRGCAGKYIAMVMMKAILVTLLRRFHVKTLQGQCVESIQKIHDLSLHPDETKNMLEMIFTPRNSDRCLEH
Attribute measured: IC50 (nM)
Reply numerically in nM, unit not repeated.

Ask: Quote CYP19A1 (Homo sapiens (Human), UniProt P11511) IC50 for entry O=C1COc2cc(NC(=O)c3cc(NC(=O)c4cn[nH]c4)ccc3Cl)ccc2N1 .
Result: 60

====

In this section, each of the molecules is paired with its reported IC50.
# Target of assay: CYP3A4 (Homo sapiens (Human), UniProt P08684)
# Sequence (P08684 whole entry): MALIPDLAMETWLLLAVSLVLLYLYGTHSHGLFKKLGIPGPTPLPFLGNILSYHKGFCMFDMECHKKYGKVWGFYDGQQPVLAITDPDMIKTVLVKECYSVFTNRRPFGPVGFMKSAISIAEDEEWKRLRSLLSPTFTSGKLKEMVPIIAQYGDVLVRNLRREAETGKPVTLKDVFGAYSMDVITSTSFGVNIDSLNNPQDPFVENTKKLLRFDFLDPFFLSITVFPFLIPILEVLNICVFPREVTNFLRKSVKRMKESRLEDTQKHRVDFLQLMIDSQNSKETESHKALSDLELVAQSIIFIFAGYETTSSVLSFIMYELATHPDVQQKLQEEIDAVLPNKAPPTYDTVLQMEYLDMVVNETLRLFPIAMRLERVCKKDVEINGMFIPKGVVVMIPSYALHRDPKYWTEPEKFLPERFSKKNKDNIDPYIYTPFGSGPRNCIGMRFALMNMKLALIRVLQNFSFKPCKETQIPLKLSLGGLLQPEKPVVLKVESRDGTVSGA
# Assay protocol: CYP inhibition against major 5 human liver CYPs in E. coli CYPEX membranes: CYP3A4 (midazolam)
# Type: in vitro ADME
# Details: bactosome mix, 10 min, 37° C.

CCCC(=O)Nc1ccc(C(=O)C(C)OC(=O)c2n[nH]c3ccccc23)cc1 (racemic): > 50 µM

Ask: Give the measured IC50 for O=C1COc2cc(NC(=O)c3cc(NC(=O)c4cn[nH]c4)ccc3Cl)ccc2N1
Result: 18.3 µM
